Reported Kd values are given for each entry in this list.
molecular target: recombinant human tau Tau-441(A152T) (Homo sapiens, UniProt P10636, A469T); construct: biotin (chemical label, NHS-PEG4); purchased SignalChem T08-56VN; host or cells: E. coli; test: Bio-layer interferometry (BLI) biosensor assay, tau A152T; assay type: binding; conditions: BLI steady-state analysis, immobilized biotinylated tau; Figure 1—figure supplement 1B; read-out: KD, Tau A152T
Sequence (P10636 1-441 isoform P10636-8 A152T): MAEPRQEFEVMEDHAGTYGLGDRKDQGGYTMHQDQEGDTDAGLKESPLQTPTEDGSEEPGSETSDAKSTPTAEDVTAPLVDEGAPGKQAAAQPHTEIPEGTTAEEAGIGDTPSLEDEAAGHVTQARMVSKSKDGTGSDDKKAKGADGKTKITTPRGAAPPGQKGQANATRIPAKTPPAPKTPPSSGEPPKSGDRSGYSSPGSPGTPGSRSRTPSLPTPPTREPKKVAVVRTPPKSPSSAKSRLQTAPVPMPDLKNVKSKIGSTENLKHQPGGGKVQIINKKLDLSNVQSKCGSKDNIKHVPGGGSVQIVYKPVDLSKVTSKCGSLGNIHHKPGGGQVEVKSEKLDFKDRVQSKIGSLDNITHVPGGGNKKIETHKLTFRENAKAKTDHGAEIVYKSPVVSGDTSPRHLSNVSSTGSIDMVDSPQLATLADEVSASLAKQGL
readout_name: Kd (µM)

>>> assay_value("O=C(CCc1ccc2c(c1)[nH]c1ccncc12)NCCOCCOCCNc1cccc2c1C(=O)N(C1CCC(=O)NC1=O)C2=O (centres unmarked)")
1.7
>>> assay_value("COc1cc(OCc2ccccn2)ccc1/C=C/c1cc(/C=C/c2ccc3cc[nH]c3c2)n[nH]1 [PE859, reference compound]")
22.1
